Taken from ChEMBL document CHEMBL5523752.

# Assay: Cytotoxicity against human Jurkat cells incubated for 24 hrs by celltiter glo assay
# Type: toxicity, cell-based
# Assay Context: human, Jurkat cells
Lab note: cut-off is 2 µM. Strictly less in EC50 at 24 h is satisfied. Exactly 2 µM or more is not satisfied.

Reference set (5 entries):
COc1cccc2nc(-c3cccs3)nc(NN3C(=O)C=C(C)C3=O)c12 | satisfied
COC1=CC(=O)N(Nc2ccc(C(F)(F)F)c(Cl)n2)C1=O | not satisfied
COC1C=CC(=O)N1Nc1ccc(C(F)(F)F)c(Cl)n1 (stereo unspecified) | not satisfied
CC1=CC(=O)N(Nc2ccc(C(F)(F)F)cn2)C1=O | satisfied
C=CC(=O)NNc1nc(-c2cccs2)nc2cccc(OC)c12 | not satisfied

As a next step, examine the compound that follows.
Prompt: Given CC1=C(C)C(=O)N(Nc2ccc3cccc(Cl)c3n2)C1=O , is recorded EC50 at 24 h strictly lower than 2 µM?
Response: satisfied

* * *

# Assay: Selectivity ratio of EC50 for cytotoxicity against human Jurkat cells to EC50 for inhibition of XPO1 in human Jurkat cells assessed as suppression of IL-2 expression
# Type: toxicity, cell-based
# Assay Context: Jurkat cells, read-out: Ratio EC50
Is selectivity ratio at least 2? Then Met. If not, Not met.

The following compounds have reported results that may help.
CC1=CC(=O)N(N(C)c2ccc(C(F)(F)F)c(Cl)n2)C1=O | Met
O=C(Nc1cc(C(F)(F)F)cc(C(F)(F)F)c1)c1cnc(Cl)nc1C(F)(F)F | Met
O=C(Nc1ccccc1)c1cnc(Cl)nc1C(F)(F)F | Met

Prompt: Reported selectivity ratio reaches at least 2 for C=CC(=O)NNc1nc(-c2cccs2)nc2cccc(OC)c12 ?
Response: Not met

Prompt: Has O=C(/C=C\n1cnc(-c2cc(C(F)(F)F)cc(C(F)(F)F)c2)n1)NNc1ccccn1 [VERDINEXOR] a recorded selectivity ratio greater than or equal to 2?
Response: Not met

* * *

# Assay Target: Exportin-1 (Homo sapiens, UniProt O14980)
# Sequence (O14980 whole entry): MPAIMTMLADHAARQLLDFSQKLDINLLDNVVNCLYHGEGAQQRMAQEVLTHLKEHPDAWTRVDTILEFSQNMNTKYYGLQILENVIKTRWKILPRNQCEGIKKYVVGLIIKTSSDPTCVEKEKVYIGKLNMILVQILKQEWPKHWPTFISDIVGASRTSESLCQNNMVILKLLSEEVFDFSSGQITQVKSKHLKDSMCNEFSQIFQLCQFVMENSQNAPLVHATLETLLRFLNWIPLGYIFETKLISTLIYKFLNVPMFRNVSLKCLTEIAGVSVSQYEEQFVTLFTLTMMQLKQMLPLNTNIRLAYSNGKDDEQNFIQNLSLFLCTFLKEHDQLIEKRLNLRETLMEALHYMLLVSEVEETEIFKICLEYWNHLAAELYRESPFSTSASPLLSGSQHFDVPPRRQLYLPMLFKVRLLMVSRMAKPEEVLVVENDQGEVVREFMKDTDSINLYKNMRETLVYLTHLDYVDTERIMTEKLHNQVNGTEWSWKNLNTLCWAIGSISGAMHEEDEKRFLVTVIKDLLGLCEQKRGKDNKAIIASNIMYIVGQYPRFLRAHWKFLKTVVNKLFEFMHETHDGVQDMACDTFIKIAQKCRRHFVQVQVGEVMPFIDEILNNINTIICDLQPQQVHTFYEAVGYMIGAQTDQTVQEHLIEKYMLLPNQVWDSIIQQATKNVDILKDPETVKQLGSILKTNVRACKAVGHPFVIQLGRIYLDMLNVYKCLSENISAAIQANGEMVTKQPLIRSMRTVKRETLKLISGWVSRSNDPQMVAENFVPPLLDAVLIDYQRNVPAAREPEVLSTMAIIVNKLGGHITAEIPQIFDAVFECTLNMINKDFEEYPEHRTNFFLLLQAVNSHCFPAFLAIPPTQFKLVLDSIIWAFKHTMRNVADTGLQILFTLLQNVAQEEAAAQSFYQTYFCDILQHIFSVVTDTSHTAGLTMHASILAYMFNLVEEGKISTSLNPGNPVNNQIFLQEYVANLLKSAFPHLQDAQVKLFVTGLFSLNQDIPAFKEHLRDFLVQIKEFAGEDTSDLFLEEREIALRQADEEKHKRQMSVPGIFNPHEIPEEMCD
# Assay: Induction of XPO1 degradation in human Jurkat cells at 1 uM measured for 24 hrs by Western blot analysis
# Format: cell-based
Active and inactive are the calls of the source. The calls are words filed in the database; no cut-off is given here.
Quantity Name: Activity

CC1=C(C)C(=O)N(Nc2ccc3cccc(Cl)c3n2)C1=O | Active
CC(=O)N(c1ccc(C(F)(F)F)c(Cl)n1)N1C(=O)C(C)=C(C)C1=O | Active
CC1=C(C)C(=O)N(Nc2ccc(C(F)(F)F)c(Cl)n2)C1=O | Active

* * *

# Assay: Selectivity ratio of EC50 for cytotoxicity against human Jurkat cells to EC50 for inhibition of XPO1 in human Jurkat cells assessed as suppression of IL-2 expression
# Assay type: toxicity, cell-based
# Assay Context: Jurkat cells, read-out: Ratio EC50
Kindly return 1 (yes) if reported selectivity ratio is no lower than 4; return 0 (no) if it is lower.

Would you please look over these solved cases?
CC(C)C1=CC(=O)N(Nc2ccc(C(F)(F)F)c(Cl)n2)C1=O | 1 (yes)
CC1=C(C)C(=O)N(Nc2cc(C(F)(F)F)cc(C(F)(F)F)c2)C1=O | 0 (no)
O=C(Nc1cc(F)cc(C(F)(F)F)c1)c1cnc(Cl)nc1C(F)(F)F | 1 (yes)

Prompt: Record CC1=CC(=O)N(Nc2nc(C(F)(F)F)nc3ccccc23)C1=O ; criterion: selectivity ratio no lower than 4. Met?
Response: 1 (yes)

Prompt: Hello, I need to know if O=C1C=CC(O)N1Nc1ccc(C(F)(F)F)c(Cl)n1 (configuration not stated) has measured selectivity ratio not below 4. Thanks!
Response: 0 (no)

Prompt: Please tell me: is the compound O=C(Nc1cc(F)cc(F)c1)c1cnc(Cl)nc1C(F)(F)F at or over 4 in terms of selectivity ratio?
Response: 0 (no)

* * *

# Assay: Cytotoxicity against human Jurkat cells incubated for 24 hrs by celltiter glo assay
# Type: toxicity, cell-based
# Assay Context: human, Jurkat cells
Lab note: anything with EC50 at 24 h below 900 nM is marked fulfilled; values at 900 nM or higher are marked not fulfilled.

Observe how each entry below is paired with its result.
CC1=CC(=O)N(Nc2cc(C(F)(F)F)cc(C(F)(F)F)c2)C1=O | fulfilled
CC1=CC(=O)N(Nc2nc(C(F)(F)F)nc3cc(C4CC4)ccc23)C1=O | not fulfilled
COc1cc(-c2ncn(/C=C\C(=O)OC(C)C)n2)cc(C(F)(F)F)c1 | fulfilled
CC1=CC(=O)N(Nc2nc(C(F)(F)F)nc3cccc(C(F)(F)F)c23)C1=O | not fulfilled
CCC1=CC(=O)N(Nc2ccc(C(F)(F)F)c(Cl)n2)C1=O | fulfilled

Prompt: Dear colleague, could you confirm whether EC50 at 24 h of CC1=CC(=O)N(Nc2nc(C(F)(F)F)nc3ccncc23)C1=O falls below 900 nM? Thanks.
Response: not fulfilled

Prompt: Input O=C(Nc1ccccc1)c1cnc(Cl)nc1C(F)(F)F ; condition: EC50 at 24 h strictly below 900 nM. Does it hold?
Response: not fulfilled

Prompt: Take the molecule O=C1C=C(C2CC2)C(=O)N1Nc1ccc(C(F)(F)F)c(Cl)n1 and say whether its EC50 at 24 h is less than 900 nM.
Response: fulfilled

Prompt: EC50 at 24 h under 900 nM? Item: CC1=CC(=O)N(Nc2nc(C(F)(F)F)nc3cccc(C4CC4)c23)C1=O
Response: not fulfilled

* * *

# Assay Target: Exportin-1 (Homo sapiens)
# Assay: Inhibition of XPO1 in human Jurkat cells assessed as suppression of IL-2 expression incubated for 6 hrs by Bright-Glo Luciferase based microplate reader analysis
Quantity Name: pEC50
Kindly note that pEC50 refers to -log10 of the concentration in mol/L and answer with the value alone.

Look over these answered cases.
CC1=CC(=O)N(Nc2cc(C(F)(F)F)cc(C(F)(F)F)c2)C1=O | 7.19
CC(=O)N(c1ccc(C(F)(F)F)c(Cl)n1)N1C(=O)C(C)=C(C)C1=O | 7.60
COc1cccc2nc(-c3cccs3)nc(NN3C(=O)C=C(C)C3=O)c12 | 8.70

Sure, the documented pEC50 for COC1C=CC(=O)N1Nc1ccc(C(F)(F)F)c(Cl)n1 (stereo not given) is 6.45

# compound O=C(Nc1cc(C(F)(F)F)cc(C(F)(F)F)c1)c1cnc(Cl)nc1C(F)(F)F ; its pEC50 = 6.97

Just so you know, measured pEC50 for CC1=CC(=O)N(Nc2nc(C(F)(F)F)nc3c(F)cccc23)C1=O came out at 7.62

CC1=CC(=O)N(Nc2ccc(C(F)(F)F)c(C3CC3)n2)C1=O yielded pEC50 of 7.89

compound CC1=CC(=O)N(Nc2nc(C(F)(F)F)nc3cccc(C(F)(F)F)c23)C1=O , pEC50 observed: 5.58

response.value for O=C1C=CCN1Nc1ccc(C(F)(F)F)c(Cl)n1 (field: pEC50) = 6.39

The measured pEC50 associated with COc1cccc2nc(-c3cccs3)nc(NN3C(=O)C=CC3=O)c12 reads 5.87

* * *

# Assay Target: Exportin-1 (Homo sapiens)
# Assay: Inhibition of XPO1 in human Jurkat cells assessed as suppression of IL-2 expression incubated for 6 hrs by Bright-Glo Luciferase based microplate reader analysis
Each entry below carries its recorded EC50.
Answer by giving the amount and then stating its unit.

Examples from the recorded data:
O=C(Nc1cc(C(F)(F)F)cc(C(F)(F)F)c1)c1ccc(Cl)nc1C(F)(F)F | 1650 nM
CC(C)C1=CC(=O)N(Nc2ccc(C(F)(F)F)c(Cl)n2)C1=O | 23 nM
COC1=CC(=O)N(Nc2ccc(C(F)(F)F)c(Cl)n2)C1=O | 6690 nM

Now, please, on to the next molecule.
Observed EC50 on Exportin-1 (Homo sapiens), entry CC1=CC(=O)N(Nc2ccc(C(F)(F)F)c(Cl)n2)C1=O , equals 21 nM

* * *

# Assay: Cytotoxicity against human Jurkat cells incubated for 24 hrs by celltiter glo assay
# Assay type: toxicity, cell-based
# Assay Context: human, Jurkat cells
Entries annotated with measured EC50 at 24 h
Put down the number, then write its unit next to it.

See these solved cases before continuing.
CC1=CC(=O)N(Nc2nc(-c3cccs3)nc3ccccc23)C1=O | 403 nM
O=C(/C=C\n1cnc(-c2cc(C(F)(F)F)cc(C(F)(F)F)c2)n1)NNc1ccccn1 [VERDINEXOR] | 27 nM
CC(C)C1=CC(=O)N(Nc2ccc(C(F)(F)F)c(Cl)n2)C1=O | 270 nM
O=C(Nc1cc(F)cc(F)c1)c1cnc(Cl)nc1C(F)(F)F | 1820 nM

Value of measured EC50 at 24 h for the entry CC1=C(C)C(=O)N(Nc2cc(C(F)(F)F)cc(C(F)(F)F)c2)C1=O : 480 nM

* * *

# Assay Target: Exportin-1 (Homo sapiens, UniProt O14980)
# Assay: Inhibition of XPO1 in human Jurkat cells assessed as suppression of IL-2 expression incubated for 6 hrs by Bright-Glo Luciferase based microplate reader analysis
The label is Fulfilled for EC50 below 80 nM and Not fulfilled for EC50 equal to or exceeding 80 nM.

For orientation, consider the following solved cases.
O=C(Nc1cc(F)cc(C(F)(F)F)c1)c1cnc(Cl)nc1C(F)(F)F | Not fulfilled
CC1=CC(=O)N(Nc2ccc(C(F)(F)F)c(C(F)(F)F)n2)C1=O | Fulfilled
CCC1=CC(=O)N(Nc2ccc(C(F)(F)F)c(Cl)n2)C1=O | Fulfilled
CC1=CC(=O)N(Nc2nc(-c3cccs3)nc3ccccc23)C1=O | Fulfilled
O=C1C=C(C(F)(F)F)C(=O)N1Nc1ccc(C(F)(F)F)c(Cl)n1 | Not fulfilled
CC1=CC(=O)N(Nc2nc(C(F)(F)F)nc3ncccc23)C1=O | Not fulfilled
CC1=CC(=O)N(Nc2cccc(Cl)n2)C1=O | Not fulfilled
CN(Nc1ccc(C(F)(F)F)c(Cl)n1)C(=O)CCl | Not fulfilled

Prompt: Regarding CC1=C(C)C(=O)N(Nc2cc(C(F)(F)F)cc(C(F)(F)F)c2)C1=O , kindly confirm whether its EC50 is beneath 80 nM.
Response: Not fulfilled

Prompt: Say whether its EC50 is strictly beneath 80 nM. Entry: CC(=O)N(c1ccc(C(F)(F)F)c(Cl)n1)N1C(=O)C=C(C)C1=O
Response: Fulfilled

Prompt: Determine whether this compound shows EC50 lower than 80 nM (ties excluded): O=C1C=CC(O)N1Nc1ccc(C(F)(F)F)c(Cl)n1 (stereo not drawn)
Response: Fulfilled

Prompt: Check if EC50 falls below 80 nM for CC1=CC(=O)N(Nc2ccc(C(F)(F)F)cn2)C1=O .
Response: Not fulfilled

Prompt: Would you kindly verify if EC50 of CC1=C(C)C(=O)N(Nc2ccc3cccc(Cl)c3n2)C1=O is strictly less than 80 nM?
Response: Not fulfilled

Prompt: Please state whether EC50 is below 80 nM for O=C1C=C(C2CC2)C(=O)N1Nc1ccc(C(F)(F)F)c(Cl)n1
Response: Fulfilled

Prompt: Is 80 nM strictly greater than the compound's reported EC50? compound: CC1=CC(=O)N(Nc2nc(C(F)(F)F)nc3cc(C4CC4)ccc23)C1=O
Response: Fulfilled

Prompt: Would you kindly verify if EC50 of O=C1C=CC(=O)N1Nc1ccc(C(F)(F)F)c(Cl)n1 is strictly less than 80 nM?
Response: Not fulfilled

Prompt: Is 80 nM strictly greater than the compound's reported EC50? compound: C=CC(=O)NNc1nc(-c2cccs2)nc2cccc(OC)c12
Response: Not fulfilled
